Cited source: PubChem BioAssay (NCATS)

Tested on: Tov-21-G
assay_name: Primary qHTS to identify gynecologic anti-cancer compounds using libraries of approved drugs and bioactive compounds (AID 1345084); note: nearly all actives have a fitted effect of over 55% in size
cond: Gynecologic cancer cell panel viability, ATPlite luminescence, 48 h; series mostly up to 57.5 µM
Inconclusive results are not listed. Active and inactive are the calls of the source. Calls come from the whole dose curve; as a rule, active = well fitted cell-killing curve with a large enough effect; inconclusive = small, poorly fitted or top-dose-only effect, or effect the other way; inactive = flat fitted curve, though single readings scatter.
Labels: active, inactive

compound="OCC(CO)(CO)NCC(O)Cn1c2ccc(Cl)cc2c2cc(Cl)ccc21 (stereo not given)" assigned_class=inactive
compound=CCN(CC)c1ccc(C(=C2C=CC(=[N+](CC)CC)C=C2)c2cc(S(=O)(=O)O)ccc2S(=O)(=O)[O-])cc1 assigned_class=active
compound="Nc1nc(NCC2CCC(CNS(=O)(=O)c3cccc4ccccc34)CC2)nc2ccccc12 (stereo not given)" assigned_class=inactive
compound=COc1ccc(-c2c(C)c(C(=O)NN3CCCCC3)nn2-c2ccc(Cl)cc2Cl)cc1 assigned_class=inactive
compound=COc1ccc(NC(=O)N2CCc3c2ccc2ccccc32)cc1N1CCN(C)CC1 assigned_class=inactive
compound=Oc1ccc(Nc2nc(-c3ccc(Cl)cc3)cs2)cc1 assigned_class=inactive
compound="N#Cc1ccc2c(c1)CCN(CCC1CCC(NC(=O)c3ccnc4ccccc34)CC1)C2 (stereo not given)" assigned_class=inactive
compound=Cn1c(NC[C@@H](N)Cc2ccccc2)nc(-c2ccncc2)c(-c2ccc3ccccc3c2)c1=O assigned_class=inactive
compound=CN([C@H]1c2cc(OCCCC(F)(F)F)ccc2OC(C)(C)[C@@H]1O)S(C)(=O)=O assigned_class=inactive
compound=C[C@@H](c1nc(-c2ccc(C#N)cc2)cs1)[C@](O)(Cn1cncn1)c1cc(F)ccc1F assigned_class=inactive
